B1: HDV Ribozyme (parent)
chain: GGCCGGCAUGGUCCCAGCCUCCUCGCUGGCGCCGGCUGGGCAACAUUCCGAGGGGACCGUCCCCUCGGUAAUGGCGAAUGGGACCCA

- Variants of: B1
- MEASUREMENT PROTOCOL: self-cleavage, relative activity (ratio to wild type); higher = more cleavage; co-transcriptional
Below: a set of entries, each annotated with reported self-cleavage.
MEASURED PARAMETER: self-cleavage

{"VARIANT CODE": "G25A C58G", "DATA VALUE": 0.111}
{"VARIANT CODE": "G6A G59A", "DATA VALUE": 0.776}
{"VARIANT CODE": "G40A C62G", "DATA VALUE": 0.432}
{"VARIANT CODE": "C36U A71U", "DATA VALUE": 0.471}
{"VARIANT CODE": "U27G U69G", "DATA VALUE": 0.798}
{"VARIANT CODE": "C21U A56U", "DATA VALUE": 0.3}
{"VARIANT CODE": "U12C C64G", "DATA VALUE": 0.308}
{"VARIANT CODE": "U20G C66G", "DATA VALUE": 0.511}
{"VARIANT CODE": "U20G U65C", "DATA VALUE": 0.222}
{"VARIANT CODE": "G17A A87U", "DATA VALUE": 0.708}
{"VARIANT CODE": "C13G C64G", "DATA VALUE": 0.138}
{"VARIANT CODE": "C32A C66U", "DATA VALUE": 0.315}
{"VARIANT CODE": "U72A", "DATA VALUE": 0.698}
{"VARIANT CODE": "U9C G74C", "DATA VALUE": 0.277}
{"VARIANT CODE": "C32G G76A", "DATA VALUE": 0.271}
{"VARIANT CODE": "G28U C33G", "DATA VALUE": 0.212}
{"VARIANT CODE": "A71C U79C", "DATA VALUE": 0.269}
{"VARIANT CODE": "C22A A87G", "DATA VALUE": 0.33}
{"VARIANT CODE": "A8U U47C", "DATA VALUE": 0.68}
{"VARIANT CODE": "C26A C62U", "DATA VALUE": 1.12}
{"VARIANT CODE": "C32A C41U", "DATA VALUE": 0.143}
{"VARIANT CODE": "C58G G76U", "DATA VALUE": 1.11}
{"VARIANT CODE": "A8G U27G", "DATA VALUE": 0.831}
{"VARIANT CODE": "C4U C63A", "DATA VALUE": 0.95}
{"VARIANT CODE": "G68C G82C", "DATA VALUE": 0.259}
{"VARIANT CODE": "A51U C58G", "DATA VALUE": 0.997}
{"VARIANT CODE": "C22G C48U", "DATA VALUE": 0.0594}
{"VARIANT CODE": "U20G U46A", "DATA VALUE": 0.192}
{"VARIANT CODE": "G11C C48A", "DATA VALUE": 0.277}
{"VARIANT CODE": "U46C C48A", "DATA VALUE": 0.89}
{"VARIANT CODE": "C57G C58U", "DATA VALUE": 1.07}
{"VARIANT CODE": "G25C U27G", "DATA VALUE": 0}
{"VARIANT CODE": "G5C A43U", "DATA VALUE": 0.0489}
{"VARIANT CODE": "U37G G54U", "DATA VALUE": 0.135}
{"VARIANT CODE": "G10U A70G", "DATA VALUE": 0.858}
{"VARIANT CODE": "G1U C18U", "DATA VALUE": 0.315}
{"VARIANT CODE": "U27C A42C", "DATA VALUE": 0.431}
{"VARIANT CODE": "G5U G29U", "DATA VALUE": 0.0594}
{"VARIANT CODE": "U47C C61U", "DATA VALUE": 0.872}
{"VARIANT CODE": "G50C A78U", "DATA VALUE": 0.131}
{"VARIANT CODE": "G5U U20C", "DATA VALUE": 0}
{"VARIANT CODE": "C33A U72C", "DATA VALUE": 0.151}
{"VARIANT CODE": "A16U C63A", "DATA VALUE": 1.08}
{"VARIANT CODE": "G38A C64U", "DATA VALUE": 0.225}
{"VARIANT CODE": "G59A G73A", "DATA VALUE": 0.665}
